Tested on: OVCAR-8 ovarian
Assay: NCI-60 one-dose screen, 48 h
Conditions: 10 µM unless noted
About 83,000 compounds went through this panel and 20% of them were active in at least one assay; those are over-represented in the sample as a whole. Activity calls are given as the source filed them. Rule for the calls: active = growth percent below 10; inactive = the rest.
Could you please pick one outcome from this set? active, inactive

Ask: Which outcome was entered for the molecule `CCOC(=O)c1c(NC(=O)CSc2n[nH]c3nc4ccccc4n23)sc(CC)c1C` in this test?
Result: inactive

Ask: Cool, now `CCCCNC1=C(OCC)C(=O)c2ccccc2C1=O`
Result: inactive

Ask: Cool, now `CN(C)c1ccc(/C=C2/C=C(c3ccccc3)OC2=O)cc1`
Result: inactive

Ask: Cool, now `COc1ccc(C2=Nc3c/c(=C\c4c(O)[nH]c5cc(Cl)ccc45)ccc3=N2)cc1`
Result: inactive

Ask: Cool, now `COc1ccc(-c2cc(-c3cc(OC)c(OC)c(OC)c3)c(C#N)c(=O)n2CCCCCC(=O)NO)cc1`
Result: inactive

Ask: Cool, now COc1cc(C2Cc3ncccc3-c3[nH]c(=O)c4cccnc4c32)cc(OC)c1OC (stereo not given)
Result: inactive

Ask: Cool, now COc1ccc(-c2cc(C(=O)N3N=C(c4ccc(N)cc4)CC3c3ccccc3)c3ccccc3n2)cc1 (stereo not given)
Result: inactive

Ask: Cool, now `CCc1ccc(CCC(=O)Nc2ncc(Cc3ccc(Cl)cc3)s2)o1`
Result: inactive

Ask: Cool, now `CCCCCCOC(=O)CC1=C(C)/C(=C/c2[nH]c(-c3ccc[nH]3)cc2OC)N=C1C`
Result: active

Ask: Cool, now `Cc1ccc(N=Nc2c(N)nn(-c3ccccc3)c2N)cc1`
Result: inactive
